Target: CFTR ΔF508 (Homo sapiens, UniProt P13569, DEL508-508)
Construct: bronchial epithelial cells isolated from CF patients homozygous for the CFTR ΔF508 mutation; McGill University; Asterand; University of North Carolina hAEC-CF; host or cells: primary human bronchial epithelial cells from CF patients homozygous for ΔF508, differentiated at air-liquid interface
Sequence (P13569 with tags, fused parts or gaps DEL508-508): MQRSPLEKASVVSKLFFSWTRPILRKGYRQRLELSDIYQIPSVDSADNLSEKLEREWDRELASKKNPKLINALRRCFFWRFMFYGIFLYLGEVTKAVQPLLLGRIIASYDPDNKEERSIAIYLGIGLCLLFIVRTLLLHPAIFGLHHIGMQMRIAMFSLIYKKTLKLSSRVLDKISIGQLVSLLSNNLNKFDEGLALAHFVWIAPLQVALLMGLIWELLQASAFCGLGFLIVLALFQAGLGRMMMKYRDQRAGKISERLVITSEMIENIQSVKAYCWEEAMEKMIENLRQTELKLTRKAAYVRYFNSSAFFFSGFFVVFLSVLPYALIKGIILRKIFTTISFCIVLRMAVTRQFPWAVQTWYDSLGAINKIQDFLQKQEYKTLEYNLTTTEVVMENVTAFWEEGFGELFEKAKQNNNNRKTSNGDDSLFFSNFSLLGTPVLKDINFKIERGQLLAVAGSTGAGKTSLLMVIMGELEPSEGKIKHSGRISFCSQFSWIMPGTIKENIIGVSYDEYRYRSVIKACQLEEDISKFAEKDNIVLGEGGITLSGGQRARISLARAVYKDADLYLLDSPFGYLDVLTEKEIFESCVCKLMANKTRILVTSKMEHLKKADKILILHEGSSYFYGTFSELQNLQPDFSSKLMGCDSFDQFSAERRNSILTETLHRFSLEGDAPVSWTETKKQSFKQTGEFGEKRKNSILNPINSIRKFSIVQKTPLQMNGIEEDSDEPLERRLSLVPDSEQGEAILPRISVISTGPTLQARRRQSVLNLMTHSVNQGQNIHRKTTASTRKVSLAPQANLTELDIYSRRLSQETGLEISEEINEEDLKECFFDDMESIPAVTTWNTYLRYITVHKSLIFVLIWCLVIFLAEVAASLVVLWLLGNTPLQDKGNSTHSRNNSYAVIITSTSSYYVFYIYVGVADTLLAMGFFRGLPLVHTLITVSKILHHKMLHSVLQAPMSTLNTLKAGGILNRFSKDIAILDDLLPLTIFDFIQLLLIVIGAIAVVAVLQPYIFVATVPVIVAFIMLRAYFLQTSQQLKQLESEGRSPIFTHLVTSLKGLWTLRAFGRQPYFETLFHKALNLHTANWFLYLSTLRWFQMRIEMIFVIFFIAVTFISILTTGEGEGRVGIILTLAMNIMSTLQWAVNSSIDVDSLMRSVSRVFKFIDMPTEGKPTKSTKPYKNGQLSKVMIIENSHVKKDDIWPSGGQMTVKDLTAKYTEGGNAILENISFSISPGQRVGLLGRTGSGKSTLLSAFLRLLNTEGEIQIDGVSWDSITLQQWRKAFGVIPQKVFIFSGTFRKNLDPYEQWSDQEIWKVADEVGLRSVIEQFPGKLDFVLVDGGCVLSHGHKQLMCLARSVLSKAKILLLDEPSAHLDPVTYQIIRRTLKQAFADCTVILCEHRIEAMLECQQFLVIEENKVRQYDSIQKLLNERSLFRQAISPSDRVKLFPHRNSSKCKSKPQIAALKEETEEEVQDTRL
Test: Chronic TECC assay, primary bronchial epithelial cells of CF patients homozygous for CFTR ΔF508 (corrector, co-corrector and potentiator)
Format: cell-based
Conditions: chronic TECC; Ieq = calculations based on the maximum current; read-out: EC50 (nM) (Ieq*)
So I've got a bunch of compounds here, and I need their EC50 values.
Give bare numbers, in nM.

Previously resolved entries follow.
CC(C)N1CCN(C2CCN(c3cc(C(=O)NS(=O)(=O)N(C)C)nc4c3c(C3CCC3)nn4-c3ccc(F)cc3)CC2)CC1 : 205
COCC1CCN(c2cc(C(=O)NS(C)(=O)=O)nc3c2c(C(C)C)nn3-c2cccc(N(C)C)c2)CC1 : 12
COCCS(=O)(=O)NC(=O)c1cc(N2CCC(OC)CC2)c2c(C3CCC3)nn(-c3ccccc3)c2n1 : 30

[Q] Recorded EC50 for `COCCN(CCOC)c1ccc(-c2cc(C(=O)NS(C)(=O)=O)nc3c2c(C(C)C)nn3C2CCCCC2)cn1` , please?
[A] 74
